tested on: SR; assay type: cell-based; details: Leukemia; 10^−5 molar; 48 hours; SRB
Give measured Growth percent SR for each item. Keep answers brief.
In your response, put the unit directly after the numeric value.

Give Growth percent SR for each listed item.
1. CC(C)CC(C)Nc1nc2ccccc2c2c(=O)c3cc(Cl)ccc3sc12 (centres unmarked)
2. O=c1c2cc(Cl)ccc2sc2c(N3CCN(Cc4ccccc4)CC3)nc3ccccc3c12
3. CN(C)CCNc1nc2ccccc2c2c(=O)c3cc(Cl)ccc3sc12
4. O=c1c2ccc(Cl)cc2sc2c(Cl)nc3ccccc3c12

97.29%
85.15%
−34.76%
89.02%

Enter Growth percent SR (test system SR) for NCCNc1nc2ccccc2c2c(=O)c3cc(Cl)ccc3sc12 −51.67%

###

test system: SN12C; format: cell-based; conditions: Renal cancer; 10^−5 molar; 48 hours; SRB
Would you kindly list Growth percent SN12C for each of these molecules?

| Molecule | Result |
| --- | --- |
| CN(C)CCNc1nc2ccccc2c2c(=O)c3cc(Cl)ccc3sc12 [Compound N7] | 48.67% |
| O=c1c2ccc(Cl)cc2sc2c(Cl)nc3ccccc3c12 [Compound 3] | 95.92% |
| CCC(CO)Nc1nc2ccccc2c2c(=O)c3cc(Cl)ccc3sc12 (stereo not shown) [Compound N12] | 81.98% |
| CCNc1nc2ccccc2c2c(=O)c3cc(Cl)ccc3sc12 [Compound N2] | 84.57% |
| CC(C)CC(C)Nc1nc2ccccc2c2c(=O)c3cc(Cl)ccc3sc12 (stereo not shown) [Compound N13] | 95.14% |

# map each molecule to its Growth percent SN12C
1. NCCNc1nc2ccccc2c2c(=O)c3cc(Cl)ccc3sc12 [Compound N14]
2. CCC(CC)Nc1nc2ccccc2c2c(=O)c3cc(Cl)ccc3sc12 [Compound N6]
3. CNc1nc2ccccc2c2c(=O)c3cc(Cl)ccc3sc12 [Compound N1]
4. O=c1c2cc(Cl)ccc2sc2c(N3CCN(Cc4ccccc4)CC3)nc3ccccc3c12 [Compound 11]
5. O=c1c2cc(Cl)ccc2sc2c(NCCO)nc3ccccc3c12 [Compound N9]

["−93.98%", "94.28%", "92.52%", "97.70%", "92.52%"]

###

tested on: HCC-2998; assay type: cell-based; conditions: HCC-2998; 10^−5 molar
Endpoint Label: Growth percent (%)
Give bare numbers, in %.

These recorded examples may help you get a feel for the data.
| Compound | Readout Unit | Growth percent |
| --- | --- | --- |
| O=c1c2cc(Cl)ccc2sc2c(NCCCNCCO)nc3ccccc3c12 [Compound N19] | % | −74.47 |
| CN(C)CCCNc1nc2ccccc2c2c(=O)c3cc(Cl)ccc3sc12 [Compound N17] | % | 108.36 |

Would you mind giving Growth percent for every compound in the list below?
1. O=c1c2cc(Cl)ccc2sc2c(NC3CCCCC3)nc3ccccc3c12 [Compound N21]
2. COc1ccc(CCNc2nc3ccccc3c3c(=O)c4cc(Cl)ccc4sc23)cc1 [Compound N31]
3. O=c1c2cc(Cl)ccc2sc2c(NCCc3ccccc3)nc3ccccc3c12 [Compound N30]
4. O=c1c2cc(Cl)ccc2sc2c(NCc3ccccc3)nc3ccccc3c12 [Compound N25]
5. O=c1c2cc(Cl)ccc2sc2c(NCCN3CCOCC3)nc3ccccc3c12 [Compound N16]

1. 109.83
2. 105.27
3. 113.77
4. 95.77
5. 90.51

###

system: NCI-H226; type: cell-based; conditions: NCI-H226; 10^−5 molar
Criterion: Growth percent strictly less than 80%. Met: Fulfilled. Not met: Not fulfilled.

| Chemical Smiles | Label Class |
| --- | --- |
| O=c1c2cc(Cl)ccc2sc2c(NC3CCCCC3)nc3ccccc3c12 | Not fulfilled |
| O=c1c2cc(Cl)ccc2sc2c(NCCCNCCO)nc3ccccc3c12 | Not fulfilled |
| O=c1c2cc(Cl)ccc2sc2c(NCc3ccc4c(c3)OCO4)nc3ccccc3c12 | Fulfilled |
| O=c1c2cc(Cl)ccc2sc2c(NCCN3CCOCC3)nc3ccccc3c12 | Not fulfilled |
| COc1ccc(CCNc2nc3ccccc3c3c(=O)c4cc(Cl)ccc4sc23)cc1 | Fulfilled |

Kindly consider the entry below.
I'd appreciate it if you could check whether O=c1c2cc(Cl)ccc2sc2c(NCCc3ccccc3)nc3ccccc3c12 has Growth percent smaller than 80%. Fulfilled

###

tested on: COLO 205; format: cell-based; conditions: COLO 205; 10^−5 molar
Endpoint Label: Growth percent (%)
Give bare numbers, in %.

Use the examples below as a reference point.
| Chemical Smiles | Numeric Value |
| --- | --- |
| O=c1c2cc(Cl)ccc2sc2c(NCc3ccccc3)nc3ccccc3c12 | 80.79 |
| O=c1c2cc(Cl)ccc2sc2c(NCCN3CCOCC3)nc3ccccc3c12 | 79.39 |
| O=c1c2cc(Cl)ccc2sc2c(NCc3ccc4c(c3)OCO4)nc3ccccc3c12 | 87.63 |
| O=c1c2cc(Cl)ccc2sc2c(NCCCNCCO)nc3ccccc3c12 | −87.17 |
| O=c1c2cc(Cl)ccc2sc2c(NC3CCCCC3)nc3ccccc3c12 | 103.96 |

Return reported Growth percent values for all items listed beneath this line.
1. O=c1c2cc(Cl)ccc2sc2c(NCCc3ccccc3)nc3ccccc3c12
2. COc1ccc(CCNc2nc3ccccc3c3c(=O)c4cc(Cl)ccc4sc23)cc1
3. CN(C)CCCNc1nc2ccccc2c2c(=O)c3cc(Cl)ccc3sc12

1. 100.02
2. 105.41
3. 91.35

###

Record form. Attribute: Growth percent T-47D. Fill in for each entry.
tested on: T-47D; format: cell-based; details: Breast cancer; 10^−5 molar; 48 hours; SRB
Give bare numbers, in %.

A selection of reference data follows.
| Molecule | Assay System | Growth percent T-47D / % |
| --- | --- | --- |
| CCC(CO)Nc1nc2ccccc2c2c(=O)c3cc(Cl)ccc3sc12 (centres unmarked) | T-47D | 46.94 |
| CNc1nc2ccccc2c2c(=O)c3cc(Cl)ccc3sc12 | T-47D | 42.13 |
| NCCNc1nc2ccccc2c2c(=O)c3cc(Cl)ccc3sc12 | T-47D | −82.45 |

Look at each molecule and report its Growth percent T-47D.
1. O=c1c2cc(Cl)ccc2sc2c(N3CCN(Cc4ccccc4)CC3)nc3ccccc3c12
2. CN(C)CCNc1nc2ccccc2c2c(=O)c3cc(Cl)ccc3sc12

1: 89.22; 2: 26.06

###

Could you please report measured Growth percent MALME-3M for the items listed next?
system: MALME-3M; assay type: cell-based; settings: Melanoma; 10^−5 molar; 48 hours; SRB
One number for each entry, in %.

The cases that follow already have their Growth percent MALME-3M on record.
| Compound | Growth percent MALME-3M, % |
| --- | --- |
| CNc1nc2ccccc2c2c(=O)c3cc(Cl)ccc3sc12 [Compound N1] | 72.46 |
| O=c1c2cc(Cl)ccc2sc2c(NCCO)nc3ccccc3c12 [Compound N9] | 104.86 |
| CCC(CC)Nc1nc2ccccc2c2c(=O)c3cc(Cl)ccc3sc12 [Compound N6] | 92.36 |
| NCCNc1nc2ccccc2c2c(=O)c3cc(Cl)ccc3sc12 [Compound N14] | −48.42 |
| O=c1c2ccc(Cl)cc2sc2c(Cl)nc3ccccc3c12 [Compound 3] | 95.87 |
| CCC(CO)Nc1nc2ccccc2c2c(=O)c3cc(Cl)ccc3sc12 (stereo not shown) [Compound N12] | 58.66 |
| O=c1c2cc(Cl)ccc2sc2c(N3CCN(Cc4ccccc4)CC3)nc3ccccc3c12 [Compound 11] | 112.36 |
| CCNc1nc2ccccc2c2c(=O)c3cc(Cl)ccc3sc12 [Compound N2] | 77.31 |
| CN(C)CCNc1nc2ccccc2c2c(=O)c3cc(Cl)ccc3sc12 [Compound N7] | −4.32 |

Quote Growth percent MALME-3M reported for CC(C)CC(C)Nc1nc2ccccc2c2c(=O)c3cc(Cl)ccc3sc12 (stereo not shown) [Compound N13] please. 95.93

###

Field: TGI. Provide a value for each of the compounds that follow.
test system: M14; type: cell-based; conditions: M14; five dose
One number for each entry, in µM.

// worked examples, TGI included
| Chemical Smiles | Readout Unit | TGI |
| --- | --- | --- |
| O=c1c2cc(Cl)ccc2sc2c(NCCCNCCO)nc3ccccc3c12 | µM | 3.53 |
| CN(C)CCNc1nc2ccccc2c2c(=O)c3cc(Cl)ccc3sc12 | µM | 3.44 |

State its TGI for this compound: NCCNc1nc2ccccc2c2c(=O)c3cc(Cl)ccc3sc12 3.35

###

tested on: CAKI-1; format: cell-based; details: Homo sapiens; CAKI-1; five dose; read-out: LC50 (the source's name)
Endpoint Label: CC50 (µM)
Numbers only, in µM.

| Chemical Smiles | CC50, µM |
| --- | --- |
| CN(C)CCNc1nc2ccccc2c2c(=O)c3cc(Cl)ccc3sc12 | 5.49 |

# evaluate next
Tell me its CC50 given O=c1c2cc(Cl)ccc2sc2c(NCCCNCCO)nc3ccccc3c12 as the entry. 5.45
